- TESTED TARGET: Glucocorticoid receptor (Homo sapiens) (UniProt P04150)
- Sequence (P04150 whole entry, looked up): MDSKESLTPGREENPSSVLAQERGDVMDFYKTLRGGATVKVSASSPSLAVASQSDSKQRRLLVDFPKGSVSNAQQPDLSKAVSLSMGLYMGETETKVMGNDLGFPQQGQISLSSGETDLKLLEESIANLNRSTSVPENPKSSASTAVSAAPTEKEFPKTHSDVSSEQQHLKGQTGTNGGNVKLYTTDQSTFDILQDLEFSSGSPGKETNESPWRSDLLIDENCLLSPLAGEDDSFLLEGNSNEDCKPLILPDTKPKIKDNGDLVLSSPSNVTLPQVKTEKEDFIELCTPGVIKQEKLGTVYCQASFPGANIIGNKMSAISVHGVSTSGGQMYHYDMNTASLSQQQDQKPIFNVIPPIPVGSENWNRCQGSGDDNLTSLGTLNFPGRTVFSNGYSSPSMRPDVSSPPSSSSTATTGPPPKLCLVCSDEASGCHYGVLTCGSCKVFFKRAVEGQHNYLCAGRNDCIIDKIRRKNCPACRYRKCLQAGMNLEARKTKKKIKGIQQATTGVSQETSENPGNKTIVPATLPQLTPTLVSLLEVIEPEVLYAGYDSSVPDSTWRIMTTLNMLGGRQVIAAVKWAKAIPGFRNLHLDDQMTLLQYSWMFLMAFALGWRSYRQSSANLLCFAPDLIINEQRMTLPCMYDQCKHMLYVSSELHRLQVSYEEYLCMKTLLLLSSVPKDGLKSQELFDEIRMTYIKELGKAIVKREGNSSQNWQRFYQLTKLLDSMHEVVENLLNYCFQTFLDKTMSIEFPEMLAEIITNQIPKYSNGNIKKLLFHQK
- PROTOCOL NOTES: GR-GFP Redistribution (AID 450); note: potency is the fitted concentration of half-maximal effect
- CONDITION DESCRIPTION: U2OS GR-GFP nuclear translocation, laser cytometry, 2 h
Activity calls are given as the source filed them.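 Rule for the calls: active = compounds whose dose series gives a full or clear partial fitted curve of increased nuclear translocation; inconclusive = weak partial curve or effect only at the top dose; inactive = no dose-dependent translocation response.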
ASSAY METRIC: Potency

Potency in this record for `COc1cccc(-c2nc(NCc3ccc(OC)cc3OC)c3ccccc3n2)c1` : > 46 µM (inactive)

Potency in this record for `CN(N=O)C(=O)N[C@H]1[C@@H](O)[C@H](O)[C@H](CO)O[C@@H]1O` : > 20.6 µM (inactive)

Potency in this record for `CN(Cc1ccco1)c1cc(-c2cccc(C#N)c2)ncn1` : > 46 µM (inactive)

Potency in this record for `Cn1c(=O)c(CCc2ccccc2)nc2cnc(Nc3ccccc3)nc21` : > 9.22 µM (inactive)

Potency in this record for `COc1ccc(CNc2ccnc(-c3cccc(NS(C)(=O)=O)c3)n2)c(OC)c1` : > 46 µM (inactive)

Potency in this record for `COc1ccc(-n2c(=O)c(-c3ccc(F)cc3)nc3cnc(OC)nc32)cc1` : > 9.22 µM (inactive)

Potency in this record for `N#Cc1cccc(-c2ccc3ncnc(N4CCNCC4)c3c2)c1` : > 46 µM (inactive)

Potency in this record for `N#CCCn1c(=O)c(-c2ccccc2)nc2cnc(N3CCOCC3)nc21` : > 9.22 µM (inactive)

Potency in this record for `CN1CCN(c2ncncc2-c2ccccc2Cl)CC1` : > 46 µM (inactive)

Potency in this record for `COCCn1c(=O)c(-c2cc(F)cc(F)c2)nc2cnc(Oc3cccc(Cl)c3)nc21` : > 9.22 µM (inactive)

Potency in this record for `Cc1ccccc1-c1cc(Nc2ccc(F)cc2)ncn1` : > 46 µM (inactive)

Potency in this record for `N#C/C(=C\c1ccc(O)c(O)c1)C(=O)OCCc1cccs1` : > 46 µM (inactive)

Potency in this record for `O=c1c(-c2cc(F)cc(F)c2)nc2cncnc2n1Cc1ccccc1Cl` : > 9.22 µM (inactive)

Potency in this record for `CN(C)C(=O)c1ccc(-c2nc(NCc3cccs3)c3ccccc3n2)cc1` : > 46 µM (inactive)

Potency in this record for `Cc1cnc(CNc2cc(-c3ccccc3C(F)(F)F)ncn2)cn1` : > 46 µM (inactive)

Potency in this record for `COc1cccc(-c2nc(NCCNC(C)=O)c3ccccc3n2)c1` : > 46 µM (inactive)

Potency in this record for `COc1cccc(-c2cncnc2NCc2ccc(OC)cc2OC)c1` : > 46 µM (inactive)

Potency in this record for `FC(F)(F)c1ccccc1-c1nc(-n2ccnc2)c2ccccc2n1` : > 46 µM (inactive)

Potency in this record for `Cc1cnc(CNc2ccnc(-c3ccc(N(C)C)cc3)n2)cn1` : > 46 µM (inactive)

Potency in this record for `COCCn1c(=O)c(C)nc2cnc(OCc3ccccc3)nc21` : > 9.22 µM (inactive)

Potency in this record for `COc1ccc(CNc2ncncc2-c2c(C)noc2C)c(OC)c1` : > 46 µM (inactive)

###

- TESTED TARGET: Dual specificity protein kinase CLK4 (Homo sapiens) (UniProt Q9HAZ1)
- Sequence (Q9HAZ1 whole entry, looked up): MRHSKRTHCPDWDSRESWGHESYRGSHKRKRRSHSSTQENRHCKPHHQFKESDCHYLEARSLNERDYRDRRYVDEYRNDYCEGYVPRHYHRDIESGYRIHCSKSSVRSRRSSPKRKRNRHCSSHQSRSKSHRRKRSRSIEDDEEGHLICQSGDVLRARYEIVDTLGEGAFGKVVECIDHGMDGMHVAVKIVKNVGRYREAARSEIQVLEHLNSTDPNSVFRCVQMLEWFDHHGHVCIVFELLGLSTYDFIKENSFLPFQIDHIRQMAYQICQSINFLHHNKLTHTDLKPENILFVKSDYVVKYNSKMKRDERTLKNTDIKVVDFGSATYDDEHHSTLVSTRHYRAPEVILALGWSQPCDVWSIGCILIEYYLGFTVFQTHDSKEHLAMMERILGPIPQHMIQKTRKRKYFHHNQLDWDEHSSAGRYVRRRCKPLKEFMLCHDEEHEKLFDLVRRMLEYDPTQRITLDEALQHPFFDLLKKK
- PROTOCOL NOTES: qHTS Assay for Inhibitors of CDC-like Kinase 4 (ADP-Glo Assay) (AID 1771); note: nearly all actives have a fitted effect of over 70% in size
- CONDITION DESCRIPTION: recombinant CLK4, ADP-Glo luminescence; series mostly up to 80 µM
Results filed as inconclusive are left out. Calls of active or inactive are those of the source. Calls come from the whole dose curve; as a rule, active = well fitted inhibition curve with a large enough effect; inconclusive = small, poorly fitted or top-dose-only effect; inactive = flat fitted curve, though single readings scatter.
Your reply should match one of these outcome classes. T = active, F = inactive

Exam item: Can you look up the reported call for `O=c1c(-c2cccc(F)c2)nc2cncnc2n1Cc1ccccc1Cl` for me?
Marked response: F

Exam item: Can you look up the reported call for `CN(Cc1ccco1)c1ccnc(-c2cccc(C#N)c2)n1` for me?
Marked response: T

Exam item: Can you look up the reported call for `COc1ccc(-n2c(=O)c(-c3ccccc3)nc3cnc(N4CCOCC4)nc32)cc1` for me?
Marked response: F

Exam item: Can you look up the reported call for `COc1cccc(-c2cncnc2NCc2cccc(C)c2)c1` for me?
Marked response: T

Exam item: Can you look up the reported call for `CN1CCN(c2ncc3nc(-c4ccccc4)c(=O)n(C)c3n2)CC1` for me?
Marked response: F

Exam item: Can you look up the reported call for `COc1cccc(Cn2c(=O)c(-c3ccc(F)cc3)nc3cnc(N4CCOCC4)nc32)c1` for me?
Marked response: F

Exam item: Can you look up the reported call for `Cn1c(=O)c(-c2ccccc2)nc2cnc(Nc3ccccc3)nc21` for me?
Marked response: F

Exam item: Can you look up the reported call for `Cc1cccc(CNc2ccnc(-c3ccccc3Cl)n2)c1` for me?
Marked response: F

Exam item: Can you look up the reported call for `COc1ccc(-n2c(=O)c(-c3ccc(Cl)cc3)nc3cnc(N(C)C)nc32)cc1` for me?
Marked response: F

Exam item: Can you look up the reported call for `CNc1ncnc2ccc(-c3cccc(OC)c3)cc12` for me?
Marked response: T

###

I'd appreciate it if you could supply Potency values for the items below.
- TESTED TARGET: Glucocorticoid receptor (Homo sapiens) (UniProt P04150)
- PROTOCOL NOTES: GR-GFP Redistribution (AID 450); note: potency is the fitted concentration of half-maximal effect
- CONDITION DESCRIPTION: U2OS GR-GFP nuclear translocation, laser cytometry, 2 h
Activity calls are given as the source filed them.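 How the source made its calls: active means compounds whose dose series gives a full or clear partial fitted curve of increased nuclear translocation; inconclusive means weak partial curve or effect only at the top dose; inactive means no dose-dependent translocation response.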

Potency in this record for `COc1ccc(Oc2ncc3nc(C)c(=O)n(CCc4ccccc4)c3n2)cc1` : > 9.22 µM (inactive)

Potency in this record for `CN(C)c1ccc(-c2nc(NC3CCNCC3)c3ccccc3n2)cc1` : > 46 µM (inactive)

Potency in this record for `Cc1nc2cnc(Oc3ccccc3)nc2n(C2CC2)c1=O` : > 9.22 µM (inactive)

Potency in this record for `N#Cc1cccc(-c2cc(NCc3cccnc3)ncn2)c1` : > 46 µM (inactive)

Potency in this record for `COc1ccc(-c2nc3cnc(OC)nc3n(CCC#N)c2=O)cc1` : > 9.22 µM (inactive)

Potency in this record for `Cc1ccccc1-c1nccc(-n2ccnc2)n1` : > 46 µM (inactive)

Potency in this record for `COc1ccccc1CNc1ncncc1-c1ccccc1OC` : > 46 µM (inactive)

Potency in this record for `COc1ccc2[nH]cc(CCNc3nc(-c4ccc(C(=O)N(C)C)cc4)nc4ccccc34)c2c1` : > 46 µM (inactive)

Potency in this record for `CS(=O)(=O)Nc1cccc(-c2nc(NCc3ccccc3)c3ccccc3n2)c1` : > 46 µM (inactive)

Potency in this record for `COc1ccc(Oc2ncc3ncc(=O)n(CCc4ccccc4)c3n2)cc1` : > 9.22 µM (inactive)

Potency in this record for `CN(C)c1ncc2nc(-c3ccccc3)c(=O)n(Cc3cccs3)c2n1` : > 9.22 µM (inactive)

Potency in this record for `O=c1c(-c2cccc(F)c2)nc2cncnc2n1Cc1ccccc1` : > 9.22 µM (inactive)

Potency in this record for `COc1ccc2[nH]cc(CCNc3nc(-c4ccoc4)nc4ccccc34)c2c1` : > 46 µM (inactive)

###

- PROTOCOL NOTES: AP1 Signaling Pathway (AID 357);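 note: ME-180 reporter cells stimulated with EGF at its EC50 level; % is set by controls: 0 for no effect and ±100 for the full control effect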
- CONDITION DESCRIPTION: ME-180 (cervical carcinoma) AP-1-bla reporter, EGF-induced, beta-lactamase ratio, 5 h; at 7.69 µM (top of the series) unless noted
- Experimental: NCGC Assay Overview: Activator protein-1 (AP-1), a transcription factor, plays an important role in tumor genesis by regulating genes involved in cell proliferation, differentiation, apoptosis, and angiogenesis. AP-1 activity is induced by a complex network of signaling pathways that involves extracellular signals, such as growth factors. […] Library compounds were measured for their ability to modulate positively or negatively the action of EC50 EGF on reporter gene activity. […]
Inconclusive results are not listed.
ASSAY METRIC: activity change, negative = inhibition (%)
Give a bare numeral; the unit % is implied.

activity change, negative = inhibition in this record for `Cc1noc(C)c1C(=O)N1CCC[C@@]2(CCN(c3ccccn3)C2)C1` : -5.91

activity change, negative = inhibition in this record for `c1ccc(CNc2cc(-c3ccoc3)ncn2)cc1` : -7.43

activity change, negative = inhibition in this record for `CS(=O)(=O)Nc1cccc(-c2cc(Nc3ccccc3)ncn2)c1` : -27.9

activity change, negative = inhibition in this record for `O=C(c1ccco1)N1CCC2(CCCN(Cc3ccccc3)C2)CC1` : -8.21

activity change, negative = inhibition in this record for `O=C(c1ccncc1)N1CCC[C@@]2(CCN(Cc3ccncc3)C2)C1` : 14.5

activity change, negative = inhibition in this record for `COc1ccccc1CN1CCCC2(CCN(C(=O)c3ccco3)CC2)C1` : -11.6

###

- TESTED TARGET: Cytochrome P450 1A2 (Homo sapiens) (UniProt P05177)
- Sequence (P05177 whole entry, looked up): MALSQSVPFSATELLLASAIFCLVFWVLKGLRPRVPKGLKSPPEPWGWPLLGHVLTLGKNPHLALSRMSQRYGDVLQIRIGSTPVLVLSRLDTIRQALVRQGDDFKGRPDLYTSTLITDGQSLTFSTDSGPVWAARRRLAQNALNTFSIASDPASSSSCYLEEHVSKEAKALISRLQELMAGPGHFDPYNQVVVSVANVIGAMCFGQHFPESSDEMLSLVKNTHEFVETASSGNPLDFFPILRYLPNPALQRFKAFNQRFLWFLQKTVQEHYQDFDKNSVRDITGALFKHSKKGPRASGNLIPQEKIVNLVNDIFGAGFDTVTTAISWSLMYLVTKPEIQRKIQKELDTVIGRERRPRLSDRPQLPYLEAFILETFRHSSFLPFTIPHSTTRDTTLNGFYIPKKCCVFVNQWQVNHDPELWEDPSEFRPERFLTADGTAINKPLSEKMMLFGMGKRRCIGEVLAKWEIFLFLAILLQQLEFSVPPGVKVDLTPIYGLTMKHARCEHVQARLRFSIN
- PROTOCOL NOTES: p450-cyp1a2 (AID 410)
- CONDITION DESCRIPTION: recombinant CYP1A2, luciferin-ME demethylation, luminescence; series mostly up to 57 µM
Records with an inconclusive call do not appear. Activity calls are given as the source filed them. Calls follow the shape of the full dose curve.
Your reply should match one of these outcome classes. 1.0 for active, 0.0 for inactive

Exam item: Can you look up the reported call for `CC(=O)N(CC(O)CN(C(C)=O)c1c(I)c(C(=O)NC[C@@H](O)CO)c(I)c(C(=O)NC[C@@H](O)CO)c1I)c1c(I)c(C(=O)NC[C@@H](O)CO)c(I)c(C(=O)NC[C@@H](O)CO)c1I` for me?
Marked response: 0.0

Exam item: Can you look up the reported call for `CN(C)c1ncc2nc(-c3ccccc3)c(=O)n(C3CC3)c2n1` for me?
Marked response: 1.0

Exam item: Can you look up the reported call for `CN1CCN(c2ncc3nc(-c4cc(F)cc(F)c4)c(=O)n(CCC#N)c3n2)CC1` for me?
Marked response: 1.0

Exam item: Can you look up the reported call for `CC(=O)N1CCC2(CC1)CCN(c1ccncc1)CC2` for me?
Marked response: 0.0

Exam item: Can you look up the reported call for `O=S(=O)(c1ccccc1)N1CCC2(CC1)CN(c1ccccn1)C2` for me?
Marked response: 0.0

Exam item: Can you look up the reported call for `CN(C)c1cc(-c2cccc(NS(C)(=O)=O)c2)ncn1` for me?
Marked response: 1.0

Exam item: Can you look up the reported call for `COc1cccc(-c2cc(NCCc3c[nH]c4ccc(OC)cc34)ncn2)c1` for me?
Marked response: 1.0

Exam item: Can you look up the reported call for `CNc1ccnc(-c2ccccc2C)n1` for me?
Marked response: 1.0

Exam item: Can you look up the reported call for `N#Cc1cccc(-c2nccc(-n3ccnc3)n2)c1` for me?
Marked response: 1.0

Exam item: Can you look up the reported call for `COc1ccccc1CNc1cc(-c2ccccc2OC)ncn1` for me?
Marked response: 1.0

This collection of values is drawn from PubChem BioAssay (NCATS).
